// provenance: patent US20240158505A1

Assayed system: B7-H3 expressed on the cell membrane (MCF-7, RKO and RKO/B7H3 cell lines) (UniProt Q5ZPR3)
Sequence (Q5ZPR3 29-534): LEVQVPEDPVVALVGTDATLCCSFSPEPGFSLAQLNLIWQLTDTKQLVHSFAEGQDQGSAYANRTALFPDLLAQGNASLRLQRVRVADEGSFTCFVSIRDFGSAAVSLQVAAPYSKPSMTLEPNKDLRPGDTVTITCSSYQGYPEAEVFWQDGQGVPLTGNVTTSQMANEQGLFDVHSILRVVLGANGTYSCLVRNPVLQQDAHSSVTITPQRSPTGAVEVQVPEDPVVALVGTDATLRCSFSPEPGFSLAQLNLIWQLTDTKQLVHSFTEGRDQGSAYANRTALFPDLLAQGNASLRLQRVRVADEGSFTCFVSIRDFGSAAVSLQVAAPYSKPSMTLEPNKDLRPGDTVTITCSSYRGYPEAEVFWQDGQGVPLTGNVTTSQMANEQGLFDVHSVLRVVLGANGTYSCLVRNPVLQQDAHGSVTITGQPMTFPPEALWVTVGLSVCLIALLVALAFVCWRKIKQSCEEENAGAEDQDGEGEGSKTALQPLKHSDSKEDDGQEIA
Assay remarks: cell ELISA on fixed RKO/B7H3 cells
# pEC50 per entry
Please keep in mind that pEC50 is minus log10 of the molar concentration; only the number is needed.

These recorded examples may help you get a feel for the data.
Binder	Observed
#7 antibody (antibody, V domains shown) VH: EVQLLESGGGLVQPGGSLRLSCAASGFTFSNFWIGWVRQAPGKGLEWVSWINPPGSITSYADSVKGRFTISRDNSKDTLYLQMNSLRAEDTAVYYCAREVGDVLDYWGQGTLVTVSS VL: QSVLTQPPSASGTPGQRVTISCTGTSSDIGRYNYVSWYQQLPGTAPKLLIYRNTQRPSGVPDRFSGSKSGTSASLAISGLRSEDEADYYCGTWDSSLNAYVFGGGTKLTVL	9.73
#6 antibody (antibody, V domains shown) VH: EVQLLESGGGLVQPGGSLRLSCAASGFTFSTYAISWVRQAPGKGLEWVSSIYYSGYTHYNPSLESRFTISRDNSKNTLYLQMNSLRAEDTAVYYCARGYSGWMDVWGQGTLVTVSS VL: QSVLTQPPSASGTPGQRVTISCGGNNIGSKSVHWYQQLPGTAPKLLIYDNNKRPSGVPNRFSGSKSGTSASLAISGLRSEDEADYYCAAWDDSLNVPVFGGGTKLTVL	10.19

// sample #5 antibody (antibody, V domains shown) VH: EVQLLESGGGLVQPGGSLRLSCAASGFTFSTYAMSWVRQAPGKGLEWVSAISGSGGSTLYADSVKGRFTISRDNSKNTLYLQMNSLRAEDTAVYYCARGGSATWAFDLWGQGTLVTVSS VL: QSVLTQPPSASGTPGQRVTISCSGSSSNIGSNYVYWYQQLPGTAPKLLIYRNNQRPSGVPDRFSGSKSGTSASLAISGLRSEDEADYYCGTWDSSLSGVVFGGGTKLTVL , its pEC50 was 10.04
